hepatocyte CLint values, listed per item
- Assay Explanation: Intrinsic clearance in Han Wistar rat hepatocytes measured per 10^6 cells
- Assay type: ADME, cell-based, Hepatocyte
- Condition Notes: read-out: CLH
Readout Name: hepatocyte CLint

Chemical Smiles	Readout Name	Recorded Measurement
O=C(N[C@H]1C2CC3CC1C[C@](O)(C3)C2)c1cnc(NC2CCOCC2)nc1C1CCC1	hepatocyte CLint	< 2 µL/min/1e6 cells
O=C(N[C@H]1C2CC3CC1C[C@](O)(C3)C2)c1cnc(N[C@H]2CCOC2)nc1C1CCCC1	hepatocyte CLint	< 2 µL/min/1e6 cells

###

- Assay Explanation: Fraction unbound in female beagle dog plasma
- Type: ADME, cell-free, Canis lupus familiaris
fraction unbound values, listed per item

Chemical Smiles	Censoring Operator	fraction unbound
O=C(N[C@H]1C2CC3CC1C[C@](O)(C3)C2)c1cnc(NC2CCOCC2)nc1C1CCC1	>	0.66
O=C(N[C@H]1C2CC3CC1C[C@](O)(C3)C2)c1cnc(N[C@H]2CCOC2)nc1C1CCCC1	=	0.38

###

- Assayed Target: 11-beta-hydroxysteroid dehydrogenase 1 (Homo sapiens)
- Sequence (P28845 whole entry): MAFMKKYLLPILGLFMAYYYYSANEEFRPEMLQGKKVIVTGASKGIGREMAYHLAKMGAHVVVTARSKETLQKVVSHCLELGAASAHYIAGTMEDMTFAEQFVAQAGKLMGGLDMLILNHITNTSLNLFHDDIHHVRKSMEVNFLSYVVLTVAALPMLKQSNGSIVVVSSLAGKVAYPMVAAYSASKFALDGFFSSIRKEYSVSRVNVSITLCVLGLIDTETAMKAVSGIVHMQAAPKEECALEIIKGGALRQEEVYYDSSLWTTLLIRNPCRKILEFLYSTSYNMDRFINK
- Assay Explanation: Inhibition of human 11beta-HSD1 by HTRF assay
pIC50: −log10 of the molar value.
pIC50 values, listed per item
Readout Name: pIC50

Chemical Smiles	Assayed Target	Recorded Measurement
O=C(N[C@H]1C2CC3CC1C[C@](O)(C3)C2)c1cnc(N[C@@H]2CCOC2)nc1C1CCCC1	11-beta-hydroxysteroid dehydrogenase 1 (Homo sapiens)	7.68
O=C(N[C@H]1C2CC3CC1C[C@](O)(C3)C2)c1cnc(N[C@H]2CCOC2)nc1C1CCCC1	11-beta-hydroxysteroid dehydrogenase 1 (Homo sapiens)	7.68
O=C(N[C@H]1C2CC3CC1C[C@](O)(C3)C2)c1cnc(NC2CCOCC2)nc1C1CCC1	11-beta-hydroxysteroid dehydrogenase 1 (Homo sapiens)	7.55

###

- Assay Explanation: Lipophilicity, log D at pH 7.4
- Type: physicochemical
- Condition Notes: buffer
Readout Name: logD

Molecule	Readout Name	Recorded Measurement
O=C(N[C@H]1C2CC3CC1C[C@](O)(C3)C2)c1cnc(N[C@H]2CCOC2)nc1C1CC1	logD	1.7
O=C(N[C@H]1C2CC3CC1C[C@](O)(C3)C2)c1cnc(NC2CCOCC2)nc1C1CCCC1	logD	2.6
CC(C)Oc1nc(N[C@H]2CCOC2)ncc1C(=O)N[C@H]1C2CC3CC1C[C@](O)(C3)C2	logD	2.5
CC(C)(CO)Nc1ncc(C(=O)N[C@H]2C3CC4CC2C[C@](O)(C4)C3)c(C2CCCC2)n1	logD	2.5
O=C(N[C@H]1C2CC3CC1C[C@](O)(C3)C2)c1cnc(N[C@@H]2CCOC2)nc1C1CCC1	logD	2
CC(C)Oc1nc(N[C@@H]2CCOC2)ncc1C(=O)N[C@H]1C2CC3CC1C[C@](O)(C3)C2	logD	2.7
O=C(N[C@H]1C2CC3CC1C[C@](O)(C3)C2)c1cnc(NC2CCOCC2)nc1C1CCC1	logD	2.1
CC(C)(CO)Nc1ncc(C(=O)N[C@H]2C3CC4CC2C[C@](O)(C4)C3)c(C2CC2)n1	logD	1.8
CC(=O)N1CC[C@@H](Nc2ncc(C(=O)N[C@H]3C4CC5CC3C[C@](O)(C5)C4)c(C3CCCC3)n2)C1	logD	1.8
O=C(N[C@H]1C2CC3CC1C[C@](O)(C3)C2)c1cnc(N[C@H]2CCOC2)nc1C1CCC1	logD	1.8
O=C(N[C@H]1C2CC3CC1C[C@](O)(C3)C2)c1cnc(N[C@H]2CCOC2)nc1C1CCCC1	logD	2.4
COCCNc1ncc(C(=O)N[C@H]2C3CC4CC2C[C@](O)(C4)C3)c(C2CCCC2)n1	logD	2.4
CC(C)Oc1nc(NC2COC2)ncc1C(=O)N[C@H]1C2CC3CC1C[C@](O)(C3)C2	logD	2.2
O=C(N[C@H]1C2CC3CC1C[C@](O)(C3)C2)c1cnc(NC2COC2)nc1C1CCCC1	logD	2.1
O=C(N[C@H]1C2CC3CC1C[C@](O)(C3)C2)c1cnc(NC[C@@H]2CCCO2)nc1C1CCCC1 (single isomer, unassigned)	logD	2.7
O=C(N[C@H]1C2CC3CC1C[C@](O)(C3)C2)c1cnc(N[C@@H]2CCOC2)nc1OC1CCC1	logD	2.9
O=C(N[C@H]1C2CC3CC1C[C@](O)(C3)C2)c1cnc(NC2CCS(=O)(=O)CC2)nc1OC1CCC1	logD	2.1

###

- Assay Explanation: Half life in female beagle dog at 1 umol/kg, iv
- Type: ADME, organism-based, Canis lupus familiaris
- Condition Notes: in vivo

Chemical Smiles	Unit Info	half-life
O=C(N[C@H]1C2CC3CC1C[C@](O)(C3)C2)c1cnc(NC2CCOCC2)nc1C1CCC1	min	42

###

- Assay Explanation: Lipophilicity, log D at pH 7.4
- Format: physicochemical
- Condition Notes: buffer

Chemical Smiles	logD
O=C(N[C@H]1C2CC3CC1C[C@](O)(C3)C2)c1cnc(N[C@@H]2CCOC2)nc1C1CC1	1.6
O=C1CC[C@@H](Nc2ncc(C(=O)N[C@H]3C4CC5CC3C[C@](O)(C5)C4)c(C3CCCC3)n2)CN1	1.6
O=C(N[C@H]1C2CC3CC1C[C@](O)(C3)C2)c1cnc(NCCO)nc1OC1CCC1	2.5
C[C@@H](O)CNc1ncc(C(=O)N[C@H]2C3CC4CC2C[C@](O)(C4)C3)c(C2CCCC2)n1	2
O=C(N[C@H]1C2CC3CC1C[C@](O)(C3)C2)c1cnc(N[C@@H]2CCOC2)nc1C1CCCC1	2.4
O=C(N[C@H]1C2CC3CC1C[C@](O)(C3)C2)c1cnc(NC2CCOCC2)nc1OC1CCC1	3.2
CC(C)(O)CNc1ncc(C(=O)N[C@H]2C3CC4CC2C[C@](O)(C4)C3)c(C2CCC2)n1	1.8
C[C@H](O)CNc1ncc(C(=O)N[C@H]2C3CC4CC2C[C@](O)(C4)C3)c(C2CCCC2)n1	2

###

hepatocyte CLint values, listed per item
- Assay Explanation: Intrinsic clearance in male beagle dog hepatocytes measured per 10^6 cells
- Assay type: ADME, cell-based, Canis lupus familiaris, Hepatocyte
- Condition Notes: read-out: CLH
Readout Name: hepatocyte CLint (µL/min/1e6 cells)

Chemical Smiles	Readout Name	Censoring Operator	Recorded Measurement
O=C(N[C@H]1C2CC3CC1C[C@](O)(C3)C2)c1cnc(N[C@H]2CCOC2)nc1C1CCCC1	hepatocyte CLint	=	6.7
O=C(N[C@H]1C2CC3CC1C[C@](O)(C3)C2)c1cnc(NC2CCOCC2)nc1C1CCC1	hepatocyte CLint	<	2

###

- Assay Explanation: Clearance in female beagle dog at 0.6 umol/kg, iv
- Type: ADME, organism-based, Canis lupus familiaris
- Condition Notes: in vivo
Readout Name: clearance

Chemical Smiles	Readout Name	Recorded Measurement
O=C(N[C@H]1C2CC3CC1C[C@](O)(C3)C2)c1cnc(N[C@H]2CCOC2)nc1C1CCCC1	clearance	14 mL/min/kg

###

- Assay Explanation: Half life in mouse at 4.7 umol/kg, iv
- Type: ADME, organism-based
- Condition Notes: in vivo
Readout Name: half-life (min)

Chemical Smiles	Readout Name	Unit Info	Recorded Measurement
O=C(N[C@H]1C2CC3CC1C[C@](O)(C3)C2)c1cnc(NC2CCOCC2)nc1C1CCC1	half-life	min	24
O=C(N[C@H]1C2CC3CC1C[C@](O)(C3)C2)c1cnc(N[C@H]2CCOC2)nc1C1CCCC1	half-life	min	42

###

bioavailability values, listed per item
- Assay Explanation: Oral bioavailability in male beagle dog at 1.2 umol/kg
- Format: ADME, organism-based, Canis lupus familiaris
- Condition Notes: in vivo

Chemical Smiles	bioavailability [%]
O=C(N[C@H]1C2CC3CC1C[C@](O)(C3)C2)c1cnc(NC2CCOCC2)nc1C1CCC1	34
O=C(N[C@H]1C2CC3CC1C[C@](O)(C3)C2)c1cnc(N[C@H]2CCOC2)nc1C1CCCC1	15

###

- Assay Explanation: Clearance in mouse at 4.7 umol/kg, iv
- Assay type: ADME, organism-based
- Condition Notes: in vivo
Readout Name: clearance (mL/min/kg)

Chemical Smiles	Readout Name	Recorded Measurement
O=C(N[C@H]1C2CC3CC1C[C@](O)(C3)C2)c1cnc(N[C@H]2CCOC2)nc1C1CCCC1	clearance	57
O=C(N[C@H]1C2CC3CC1C[C@](O)(C3)C2)c1cnc(NC2CCOCC2)nc1C1CCC1	clearance	42

###

- Assay Explanation: Fraction unbound in mouse plasma
- Type: ADME, cell-free

Chemical Smiles	Censoring Operator	fraction unbound
O=C(N[C@H]1C2CC3CC1C[C@](O)(C3)C2)c1cnc(NC2CCOCC2)nc1C1CCC1	>	0.5
O=C(N[C@H]1C2CC3CC1C[C@](O)(C3)C2)c1cnc(N[C@H]2CCOC2)nc1C1CCCC1	=	0.3

###

- Assay Explanation: Lipophilicity, log D at pH 7.4
- Type: physicochemical
- Condition Notes: buffer
One threshold, 2, splits the recorded logD values: lower ones are True, equal or higher ones are False.

Chemical Smiles	Class
CC(C)(CO)Nc1ncc(C(=O)N[C@H]2C3CC4CC2C[C@](O)(C4)C3)c(OC2CCC2)n1	False
O=C(N[C@H]1C2CC3CC1C[C@](O)(C3)C2)c1cnc(NCCO)nc1C1CCCC1	True
O=C(N[C@H]1C2CC3CC1C[C@](O)(C3)C2)c1cnc(NCCO)nc1C1CCC1	True
CC(C)(O)CNc1ncc(C(=O)N[C@H]2C3CC4CC2C[C@](O)(C4)C3)c(C2CCCC2)n1	False
CC(C)(O)CNc1ncc(C(=O)N[C@H]2C3CC4CC2C[C@](O)(C4)C3)c(C2CC2)n1	True
O=C(N[C@H]1C2CC3CC1C[C@](O)(C3)C2)c1cnc(NC2CCS(=O)(=O)CC2)nc1C1CCC1	True
O=C(N[C@H]1C2CC3CC1C[C@](O)(C3)C2)c1cnc(NC[C@H]2CCCO2)nc1C1CCCC1	False
O=C(N[C@H]1C2CC3CC1C[C@](O)(C3)C2)c1cnc(N[C@H]2CCC[C@H]2O)nc1C1CCCC1	False
O=C1C[C@H](CNc2ncc(C(=O)N[C@H]3C4CC5CC3C[C@](O)(C5)C4)c(C3CCCC3)n2)CN1	True
O=C(N[C@H]1C2CC3CC1C[C@](O)(C3)C2)c1cnc(NC2COC2)nc1C1CC1	True
O=C(N[C@H]1C2CC3CC1C[C@](O)(C3)C2)c1cnc(N[C@H]2CCOC2)nc1OC1CCC1	False
CC(=O)N1CCC(Nc2ncc(C(=O)N[C@H]3C4CC5CC3C[C@](O)(C5)C4)c(C3CCCC3)n2)CC1	True
O=C(N[C@H]1C2CC3CC1C[C@](O)(C3)C2)c1cnc(NC2CCS(=O)(=O)CC2)nc1C1CCCC1	True
O=C(N[C@H]1C2CC3CC1C[C@](O)(C3)C2)c1cnc(N[C@H]2CCNC2=O)nc1C1CCCC1	True
O=C(N[C@H]1C2CC3CC1C[C@](O)(C3)C2)c1cnc(NC2CCOCC2)nc1C1CC1	True
CN(C)C(=O)CNc1ncc(C(=O)N[C@H]2C3CC4CC2C[C@](O)(C4)C3)c(C2CCCC2)n1	True
O=C(N[C@H]1C2CC3CC1C[C@](O)(C3)C2)c1cnc(NC2COC2)nc1OC1CCC1	False
